Origin of the recorded values: patent EP0381989A1

Readings of IC50 for the listed compounds
Tested on: LoVo/DX cells
Assay: in vitro cytotoxicity (colony growth inhibition) on LoVo/DX cells
Conditions: Homo sapiens, LoVo/DX, 4 h, read-out: Cytotoxicity after 4h of treatment (IC50) LoVo/DX
Procedure: The biological activity of the compounds according to the inventio was tested in vitro against LoVo (human colon adenocarcinoma) and LoVo/DX cells in comparison with doxorubicin and 4-demethoxydaunorubicin (4-dem-DNR). Table 1. Table 1 -
# number only, unit µg/mL dropped from output

Here's what some known entries look like.
| Compound | Study target | Quantity measured | Observed |
| --- | --- | --- | --- |
| CC(=O)[C@]1(O)Cc2c(O)c3c(c(O)c2[C@@H](O[C@H]2CC[C@@H](N)[C@H](C)O2)C1)C(=O)c1c(F)cccc1C3=O | LoVo/DX cells | IC50 | 0.006 |
| C[C@@H]1O[C@@H](O[C@H]2C[C@](O)(C(=O)CO)Cc3c2c(O)c2c(c3[N+](=O)[O-])C(=O)c3ccccc3C2=O)CC[C@H]1N | LoVo/DX cells | IC50 | 0.205 |
| C[C@@H]1O[C@@H](O[C@H]2C[C@](O)(C(=O)CO)Cc3c(N)c4c(c(O)c32)C(=O)c2ccccc2C4=O)CC[C@H]1N | LoVo/DX cells | IC50 | 0.109 |
| C[C@@H]1O[C@@H](O[C@H]2C[C@](O)(C(=O)CO)Cc3c(O)c4c(c(N)c32)C(=O)c2ccccc2C4=O)CC[C@H]1N | LoVo/DX cells | IC50 | 0.09 |

Q: State the recorded IC50 for this entry: CC(=O)[C@]1(O)Cc2c(O)c3c(c(O)c2[C@@H](O[C@H]2CC[C@@H](N)[C@H](C)O2)C1)C(=O)c1c(O)cccc1C3=O
A: 0.0027

Q: State the recorded IC50 for this entry: CC(=O)[C@]1(O)Cc2c(O)c3c(c(O)c2[C@@H](O[C@H]2C[C@H](N)[C@H](O)[C@H](C)O2)C1)C(=O)c1ccccc1C3=O [4-dem-DNR, 4-demethoxydaunorubicin, reference compound]
A: 0.125

Q: State the recorded IC50 for this entry: C[C@@H]1O[C@@H](O[C@H]2C[C@](O)(C(=O)CO)Cc3c(O)c4c(c([N+](=O)[O-])c32)C(=O)c2ccccc2C4=O)CC[C@H]1N
A: 2.26

Q: State the recorded IC50 for this entry: COc1cccc2c1C(=O)c1c(O)c3c(c(O)c1C2=O)C[C@@](O)(C(=O)CO)C[C@@H]3O[C@H]1C[C@H](N)[C@H](O)[C@H](C)O1 [Doxorubicin, doxorubicin, reference compound]
A: 2.18
